pIC50: −log10 of the molar value.
For reference, the following pIC50 results for Melanocortin receptor 4 (Homo sapiens) were taken from various sources.

molecule: COc1ccc2nc(N[C@H]3CCN(C(=O)C(C)(C)c4ccc(Cl)cc4)C3)cc(C)c2c1
pIC50: 7.34
--
molecule: CC[C@@H](COc1cccnc1C1CCN(C(=O)[C@@H](Cc2ccc(Cl)cc2Cl)NC(=O)N2CCCC2)CC1)N1CCCC1
pIC50: ≥ 7.00
--
molecule: CC(C)N1CCN(C(CN2CCN(CCCc3sc(-c4ccccc4)nc3-c3ccccc3)CC2)c2ccc(F)cc2)CC1 (stereo not shown)
pIC50: 6.79
--
molecule: CC[C@H](COc1cccnc1C1CCN(C(=O)[C@@H](Cc2ccc(Cl)cc2Cl)NC(=O)N2CC[C@H](F)C2)CC1)N1CCCC1
pIC50: ≥ 7.00
--
molecule: CC[C@H](COc1cccnc1C1CCN(C(=O)[C@@H](Cc2ccc(Cl)cc2Cl)NC(=O)N2CC(O)C2)CC1)N(C)C
pIC50: ≥ 7.00

According to the records, this molecule "CC[C@H](COc1cccnc1C1CCN(C(=O)[C@@H](Cc2ccc(Cl)cc2Cl)NC(=O)N2CCC(C)(O)CC2)CC1)N(C)C" displays pIC50 of ≥ 7.00

According to the records, this molecule "CC[C@H](COc1cccnc1C1CCN(C(=O)[C@@H](Cc2ccc(Cl)cc2Cl)NC(=O)N2CCC[C@@H](O)C2)CC1)N(C)C" displays pIC50 of ≥ 7.00
